molecular target: ErbB2 insYVMA (HER2-YVMA, SEQ ID NO: 2) (Homo sapiens, UniProt P04626, INS775YVMA/P1170A); test: biochemical; settings: ErbB2 insYVMA enzyme assay; read-out: Assay 1 IC50
Sequence (P04626 with tags, fused parts or gaps INS775YVMA/P1170A limits assumed): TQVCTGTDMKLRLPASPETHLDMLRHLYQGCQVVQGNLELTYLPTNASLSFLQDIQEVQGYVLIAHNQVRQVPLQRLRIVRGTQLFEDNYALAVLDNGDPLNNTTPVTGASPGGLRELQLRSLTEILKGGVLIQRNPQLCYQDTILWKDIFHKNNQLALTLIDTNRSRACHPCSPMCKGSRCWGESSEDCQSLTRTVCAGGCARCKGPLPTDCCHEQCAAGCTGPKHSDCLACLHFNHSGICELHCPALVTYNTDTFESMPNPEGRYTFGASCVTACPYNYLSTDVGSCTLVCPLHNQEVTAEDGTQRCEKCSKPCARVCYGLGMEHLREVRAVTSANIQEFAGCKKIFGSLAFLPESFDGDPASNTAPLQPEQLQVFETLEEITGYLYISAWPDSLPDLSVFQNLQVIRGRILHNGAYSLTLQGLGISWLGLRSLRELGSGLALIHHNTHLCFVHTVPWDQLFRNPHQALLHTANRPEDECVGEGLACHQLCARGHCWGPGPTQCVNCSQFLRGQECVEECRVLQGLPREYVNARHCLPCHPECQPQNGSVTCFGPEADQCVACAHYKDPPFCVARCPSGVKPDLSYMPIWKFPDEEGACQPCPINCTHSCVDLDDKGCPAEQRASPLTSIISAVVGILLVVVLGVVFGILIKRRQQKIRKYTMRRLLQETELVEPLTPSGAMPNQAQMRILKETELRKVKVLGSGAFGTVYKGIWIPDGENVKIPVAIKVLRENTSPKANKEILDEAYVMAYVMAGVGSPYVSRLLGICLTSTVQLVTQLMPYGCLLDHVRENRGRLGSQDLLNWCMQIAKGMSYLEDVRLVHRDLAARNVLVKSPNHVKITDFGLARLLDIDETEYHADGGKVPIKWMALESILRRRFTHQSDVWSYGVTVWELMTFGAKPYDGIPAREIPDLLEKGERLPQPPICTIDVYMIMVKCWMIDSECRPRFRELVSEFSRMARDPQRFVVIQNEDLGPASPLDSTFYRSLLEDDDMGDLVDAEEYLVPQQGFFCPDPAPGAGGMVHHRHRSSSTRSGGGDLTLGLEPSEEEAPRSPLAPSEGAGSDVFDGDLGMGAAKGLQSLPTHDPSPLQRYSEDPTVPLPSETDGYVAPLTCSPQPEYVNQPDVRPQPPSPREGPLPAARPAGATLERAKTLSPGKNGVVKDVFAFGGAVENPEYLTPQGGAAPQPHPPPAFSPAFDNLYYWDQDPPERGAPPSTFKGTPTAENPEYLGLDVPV
Label scheme, based on IC50: L (below 0.02 µM), M (0.02 µM to below 0.06 µM), H (0.06 µM or more)

As a guide, the following entries are already answered.
- [2H]c1nc(Nc2ccc(Oc3ccc4c(c3)ncn4C)c(C)c2)c2nc(N3CCOCC3)nc([2H])c2n1 [Example 68]: L
- CCOc1ncc2ncnc(Nc3ccc(Oc4ccc5scnc5c4)c(C)c3)c2n1 [Example 46]: H
- N#C[C@@H]1CCN(c2ncc3ncnc(Nc4ccc(Oc5ccn6ncnc6c5)c(Cl)c4)c3n2)C1 [Example 387]: H
- Cc1cc(Nc2ncnc3cnc(NC4CCC4(F)F)nc23)ccc1Oc1ccc2c(c1)ncn2C (stereo not drawn) [Example 52]: H
- Cc1cc(Nc2ncnc3cnc(N(C)CCO)nc23)ccc1Oc1ccc2c(c1)ncn2C [Example 208]: L
- Cc1cc(Nc2ncnc3cnc(NCC(F)F)nc23)ccc1Oc1cc(F)c2c(c1)ncn2C [Example 207]: M
- Cc1cc(Nc2ncnc3cnc(N4CCN(C)[C@H](C)C4)nc23)ccc1Oc1ccn2ncnc2c1 [Example 136]: M
- Cc1cc(Nc2ncnc3cnc(N4C[C@@H](C)[C@H](O)C4)nc23)ccc1Oc1ccc2c(c1)ncn2C [Example 167]: L
- Cc1cc(Nc2ncnc3cnc(N4CCC(O)(C(F)F)CC4)nc23)ccc1Oc1ccc2c(c1)ncn2C [Example 168]: M
- Cc1cc(Nc2ncnc3cnc(N(C)C4COC4)nc23)ccc1Oc1ccc2c(c1)ncn2C [Example 175]: L

query: Into which bin does this molecule go? Cc1cc(Nc2ncnc3cnc(O[C@H]4CNCC[C@H]4F)nc23)ccc1Oc1ccc2c(c1)ncn2C [Example 290]
result: H

query: Lab note: sort O=S1(=O)CC[C@@H]2CN(c3ncc4ncnc(Nc5ccc(Oc6ccn7ncnc7c6)c(Cl)c5)c4n3)C[C@@H]21 [Example 433] into the matching IC50 band.
result: M

query: Categorize the following entry: Clc1cc(Nc2ncnc3cnc(N4C[C@@H]5[C@H](C4)[C@H]4CC[C@@H]5O4)nc23)ccc1Oc1ccn2ncnc2c1 [Example 351]
result: M

query: Input Cc1cc(Nc2ncnc3cnc(N4CCC[C@H]4C(F)(F)F)nc23)ccc1Oc1ccc2c(c1)ncn2C [Example 249] ; output its category
result: M

* * *

target: ErbB2 with Exon 20 YVMA insertion (HER2-YVMA) (Homo sapiens (Human), UniProt P04626, INS775YVMA); experiment: Cellular phosphorylation assay, constitutive ErbB2 phosphorylation (Y1196) in engineered NIH 3T3 cells, Assay 4
Sequence (P04626 other isoform, or with tags, fused parts or gaps ins YVMA behind 775): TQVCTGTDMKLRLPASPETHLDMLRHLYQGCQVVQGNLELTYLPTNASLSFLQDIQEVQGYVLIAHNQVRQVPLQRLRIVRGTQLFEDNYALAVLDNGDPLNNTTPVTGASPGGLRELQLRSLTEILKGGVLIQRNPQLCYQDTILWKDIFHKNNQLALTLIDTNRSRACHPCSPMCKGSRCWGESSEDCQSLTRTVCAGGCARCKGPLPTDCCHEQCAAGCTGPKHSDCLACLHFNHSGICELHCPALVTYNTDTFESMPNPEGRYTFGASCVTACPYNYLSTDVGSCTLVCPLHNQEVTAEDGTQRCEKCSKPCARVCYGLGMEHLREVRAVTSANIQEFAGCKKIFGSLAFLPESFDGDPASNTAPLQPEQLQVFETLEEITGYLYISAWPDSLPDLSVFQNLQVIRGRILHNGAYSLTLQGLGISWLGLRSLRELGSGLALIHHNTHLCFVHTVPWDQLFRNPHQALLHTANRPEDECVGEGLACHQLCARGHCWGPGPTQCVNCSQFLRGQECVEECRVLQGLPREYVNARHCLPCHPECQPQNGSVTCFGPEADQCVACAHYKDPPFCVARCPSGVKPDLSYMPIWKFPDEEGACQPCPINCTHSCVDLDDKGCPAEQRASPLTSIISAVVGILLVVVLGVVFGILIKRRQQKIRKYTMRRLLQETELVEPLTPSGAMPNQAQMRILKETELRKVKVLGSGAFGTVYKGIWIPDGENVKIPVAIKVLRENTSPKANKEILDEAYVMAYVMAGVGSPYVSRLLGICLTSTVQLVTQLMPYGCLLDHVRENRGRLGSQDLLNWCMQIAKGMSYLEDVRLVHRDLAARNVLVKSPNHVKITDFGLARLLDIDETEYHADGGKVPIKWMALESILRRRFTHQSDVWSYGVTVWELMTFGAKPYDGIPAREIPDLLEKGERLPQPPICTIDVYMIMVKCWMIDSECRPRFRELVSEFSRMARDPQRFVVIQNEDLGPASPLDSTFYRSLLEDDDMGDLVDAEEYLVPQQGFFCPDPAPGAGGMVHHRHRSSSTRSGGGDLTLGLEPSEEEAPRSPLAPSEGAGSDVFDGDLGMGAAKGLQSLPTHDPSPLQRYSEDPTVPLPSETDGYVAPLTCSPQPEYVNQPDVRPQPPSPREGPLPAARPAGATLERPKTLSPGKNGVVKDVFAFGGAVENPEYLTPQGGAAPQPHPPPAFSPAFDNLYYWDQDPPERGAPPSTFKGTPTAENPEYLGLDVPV
pIC50: −log10 of the molar value.
Entry flag: class 1 if pIC50 reaches 8; class 0 if it does not.

Check out these entries, answers already filled in.
• Cc1cc(Nc2ncnc3cnc(N4CC5C(C4)C5(F)F)nc23)ccc1Oc1ccc2c(c1)ncn2C (stereo not drawn) = class 0
• Cc1cc(Nc2ncnc3cnc(O[C@@H]4CNCC4(F)F)nc23)ccc1Oc1ccc2c(c1)ncn2C = class 0
• Cc1cc(Nc2ncnc3cnc(N[C@H]4CN(C)C[C@H]4F)nc23)ccc1Oc1ccc2c(c1)ncn2C = class 1
• Cc1cc(Nc2ncnc3cnc(N4CCOC[C@@H]4C)nc23)ccc1Oc1ccc2c(c1)ncn2C = class 0
• Cc1cc(Nc2ncnc3cnc(N4C[C@H]5C[C@@H]4C[C@@H]5O)nc23)ccc1Oc1ccc2c(c1)ncn2C = class 0
• CON1CCN(c2ncc3ncnc(Nc4ccc(Oc5ccc6c(c5)ncn6C)c(C)c4F)c3n2)CC1 [Example 142, 2,2,2-trifluoroacetate] = class 0
• Cc1cc(Nc2ncnc3cnc(N4CCCC4=O)nc23)ccc1Oc1ccn2ncnc2c1 = class 0
• Cc1cc(Nc2ncnc3cnc(N4CC[C@H]4C(F)F)nc23)ccc1Oc1ccn2ncnc2c1 = class 0
• Cc1cc(Nc2ncnc3cnc(N4CCC(F)(F)CC4)nc23)ccc1Oc1ccc2c(c1)ncn2C = class 0

Would you kindly look at the next entry?
query: Form field: pIC50 at least 8? Entry: Cc1cc(Nc2ncnc3cnc(NC4CC4)nc23)ccc1Oc1ccc2c(c1)ncn2C
result: class 1
